biological target: Aurora-2 (Aurora A) (Homo sapiens, UniProt O14965)
Sequence (O14965 whole entry): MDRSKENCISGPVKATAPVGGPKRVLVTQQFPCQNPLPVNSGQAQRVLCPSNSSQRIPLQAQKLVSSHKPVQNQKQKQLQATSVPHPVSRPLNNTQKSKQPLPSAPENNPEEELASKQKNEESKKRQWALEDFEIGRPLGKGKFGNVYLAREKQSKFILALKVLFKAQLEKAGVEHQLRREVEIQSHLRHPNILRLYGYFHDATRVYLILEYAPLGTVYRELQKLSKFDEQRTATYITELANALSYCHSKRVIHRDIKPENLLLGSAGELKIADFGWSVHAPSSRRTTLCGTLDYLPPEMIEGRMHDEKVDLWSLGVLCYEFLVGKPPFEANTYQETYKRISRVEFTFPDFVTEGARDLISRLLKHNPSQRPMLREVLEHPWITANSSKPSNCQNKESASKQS
METRIC NAME: pKi
Please keep in mind that pKi is minus log10 of the molar concentration; only the number is needed.

Give recorded pKi with Aurora-2 (Aurora A) (Homo sapiens, UniProt O14965) for the following compound: "O=C(CC(F)(F)F)Nc1ccc(Sc2nc(Nc3ncns3)cc(N3CC(F)(C4CC4)C3)n2)cc1" 7.48

* * *

Ki overview
molecular target: Aurora-1 (Aurora B) (Homo sapiens, UniProt Q96GD4)
Sequence (Q96GD4 whole entry): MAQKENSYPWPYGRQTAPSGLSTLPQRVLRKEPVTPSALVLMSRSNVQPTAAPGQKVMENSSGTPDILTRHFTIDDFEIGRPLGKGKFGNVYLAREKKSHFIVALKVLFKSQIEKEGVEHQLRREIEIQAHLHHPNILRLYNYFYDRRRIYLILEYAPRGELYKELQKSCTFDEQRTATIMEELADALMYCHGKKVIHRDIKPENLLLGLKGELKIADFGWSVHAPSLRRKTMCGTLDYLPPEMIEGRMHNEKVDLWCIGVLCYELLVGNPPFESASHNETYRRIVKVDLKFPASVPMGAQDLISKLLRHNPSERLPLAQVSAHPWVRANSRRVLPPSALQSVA

{"STRUCTURE STRING": "O=C(CC(F)(F)F)Nc1ccc(Sc2nc(Nc3nnc[nH]3)cc(N3CC[C@H](F)C3)n2)cc1", "Ki": "< 500 nM"}
{"STRUCTURE STRING": "O=C(CC(F)(F)F)Nc1ccc(Sc2nc(Nc3ccccn3)cc(N3CC(F)(C4CC4)C3)n2)cc1", "Ki": "< 500 nM"}
{"STRUCTURE STRING": "O=C(CC(F)(F)F)Nc1ccc(Sc2nc(Nc3nnc[nH]3)cc(N3CC(F)(C4CC4)C3)n2)cc1", "Ki": "> 1500 nM"}
{"STRUCTURE STRING": "O=C(CC(F)(F)F)Nc1ccc(Sc2nc(Nc3ncns3)cc(N3CC[C@H](F)C3)n2)cc1", "Ki": "> 1500 nM"}
{"STRUCTURE STRING": "O=C(CC(F)(F)F)Nc1ccc(Sc2nc(Nc3ccccn3)cc(N3CC[C@H](F)C3)n2)cc1", "Ki": "> 1500 nM"}

// next entry
Give recorded Ki with Aurora-1 (Aurora B) (Homo sapiens, UniProt Q96GD4) for the following compound: "O=C(CC(F)(F)F)Nc1ccc(Sc2nc(Nc3ncns3)cc(N3CC(F)(C4CC4)C3)n2)cc1" > 1500 nM
